Give measured selectivity ratio for each item. Keep answers brief.
test: in vitro; conditions: human, PM1 cells
Description: Therapeutic index, ratio of CC50 for human PM1 cells to IC50 for CCR5-dependent HIV1 Ba-L infected in human PM1 cells
One number for each entry.

1. Cc1nnc(C(C)C)n1[C@@H]1C[C@H]2CC[C@@H](C1)N2CC[C@H](NC(=O)C1CCCCC1)c1cccs1 = 44000

I'm hoping you can list selectivity ratio for every compound here, please.
1. Cc1nnc(C(C)C)n1[C@@H]1C[C@H]2CC[C@@H](C1)N2CC[C@H](NC(=O)C1CCC(F)(F)CC1)c1ccsc1
2. Cc1nnc(C(C)C)n1[C@@H]1C[C@H]2CC[C@@H](C1)N2CC[C@H](NC(=O)C1CCC(F)(F)CC1)c1cccs1
3. Cc1nnc(C(C)C)n1[C@@H]1C[C@H]2CC[C@@H](C1)N2CC[C@H](NC(=O)C1CCCC1)c1cccs1

Return:
1: 260000; 2: 99000; 3: 220000

---

test system: Human immunodeficiency virus 1; experiment: microbe, parasite or virus in culture; conditions: Human immunodeficiency virus 1, Ba-L, PM1, 120 h
Description: Antiviral activity against CCR5-dependent HIV1 Ba-L infected in human PM1 cells assessed as reduction in virus infection measured after 5 days by luciferase reporter gene assay
Consider the following molecules; for each one, report its pIC50.
Answers are plain numbers, as −log10 of the molar value.

Known results for molecules:
1) Cc1nnc(C(C)C)n1[C@@H]1C[C@H]2CC[C@@H](C1)N2CC[C@H](NC(=O)C1CCCC1)c1cccs1 = 8.47
2) Cc1ccc([C@H](CCN2[C@@H]3CC[C@H]2C[C@H](n2c(C)nnc2C(C)C)C3)NC(=O)C2CCC(F)(F)CC2)s1 = 7.83
3) Cc1nnc(C(C)C)n1[C@@H]1C[C@H]2CC[C@@H](C1)N2CC[C@H](NC(=O)C1CCC(F)(F)CC1)c1ccsc1 = 8.55
4) Cc1nnc(C(C)C)n1[C@@H]1C[C@H]2CC[C@@H](C1)N2CC[C@H](NC(=O)C1CCC(F)(F)CC1)c1cccs1 = 8.21

Note: attention shifts to another entry.
Enquiry: Looking for the measured pIC50 of Cc1nnc(C(C)C)n1[C@@H]1C[C@H]2CC[C@@H](C1)N2CC[C@H](NC(=O)C1CCCCC1)c1cccs1 , can you help?
Return: 8.09

---

assay: Half life in dog at 15 mg/kg, po by LC-MS/MS analysis; assay type: ADME, organism-based, Canis lupus familiaris; conditions: in vivo
For each entry below, report its half-life value.
Numbers only, in h.

1. Cc1nnc(C(C)C)n1[C@@H]1C[C@H]2CC[C@@H](C1)N2CC[C@H](NC(=O)C1CCCC1)c1cccs1 = 2.5

Next item in the queue.
Enquiry: What does the data say about its half-life? Entry: Cc1nnc(C(C)C)n1[C@@H]1C[C@H]2CC[C@@H](C1)N2CC[C@H](NC(=O)C1CCC(F)(F)CC1)c1ccsc1
Return: 3.9

---

assay: Oral bioavailability in Sprague-Dawley rat at 20 mg/kg by LC-MS/MS analysis; format: ADME, organism-based; conditions: in vivo
For each record, write down the corresponding bioavailability.
Numbers only, in %.

Below: 3 compounds and their reported bioavailability.
1) Cc1nnc(C(C)C)n1[C@@H]1C[C@H]2CC[C@@H](C1)N2CC[C@H](NC(=O)C1CCC(F)(F)CC1)c1cccs1 = 7.8
2) Cc1nnc(C(C)C)n1[C@@H]1C[C@H]2CC[C@@H](C1)N2CC[C@H](NC(=O)C1CCC(F)(F)CC1)c1ccsc1 = 14.5
3) Cc1nnc(C(C)C)n1[C@@H]1C[C@H]2CC[C@@H](C1)N2CC[C@H](NC(=O)C1CCCC1)c1cccs1 = 33.4

Hey, quick one: what's bioavailability for each of these?
1. Cc1ccc([C@H](CCN2[C@@H]3CC[C@H]2C[C@H](n2c(C)nnc2C(C)C)C3)NC(=O)C2CCC(F)(F)CC2)s1
2. Cc1nnc(C(C)C)n1[C@@H]1C[C@H]2CC[C@@H](C1)N2CC[C@H](NC(=O)C1CCCCC1)c1cccs1

Return:
1: 40.1; 2: 14.8

Every entry's value here was drawn from ChEMBL document CHEMBL4229569.
